Reference source: PubChem BioAssay (NCI)

- Tested on: MDA-MB-435
- assay_name: NCI tumour cell line growth inhibition, 48 h
The entries below are paired with their reported TGI.

1. O=C1/C(=C\c2ccc([N+](=O)[O-])cc2)N(S(=O)(=O)c2ccccc2)c2ncccc21    47.2 µM
2. Nn1c(C23CC4CC(CC(C4)C2)C3)n[nH]c1=S    > 100 µM

Notebook entry, MDA-MB-435 assay: TGI of O=C1C2=Cc3ccccc3OC2(O)Oc2cc3ccccc3cc21 (centres undefined) = ? > 100 µM

Report TGI for O=C(NN1C(=O)C(Cl)C1c1ccc(Cl)cc1)c1c(Cl)c(Cl)c(Cl)c(Cl)c1-c1nc2ccccc2[nH]1 (centres undefined) tested on MDA-MB-435. 80.5 µM

# query: TGI | item COC(=O)C1=C(OC(=O)/C(=C/c2ccccc2)c2ccc(Cl)cc2Cl)C(C(=O)OC)[C@@]2(O)[C@@H](C(=O)OC)[C@H](C)C[C@@H]1[C@@H]2C(=O)OC (some centres undefined) | system: MDA-MB-435 > 100 µM

Can you look up TGI on MDA-MB-435 for O=C(Oc1ccc[nH]c1=O)c1cc([N+](=O)[O-])cc([N+](=O)[O-])c1 ? > 100 µM

What is its TGI for MDA-MB-435? Entry: N#Cc1ccc(-c2nc3c(N)ncnc3o2)cc1 > 100 µM

TGI of CC1(C)C2CCC1(C)C(N/C(Sc1ccccc1)=C(/C(Cl)=C(Cl)Cl)[N+](=O)[O-])C2 (centres undefined) on MDA-MB-435? 25.9 µM

Hi! What's the reported TGI for [N-]=[N+]=NCCCn1c2c(c3ccc([N+](=O)[O-])cc3c1=O)C(=O)c1ccccc1-2 on MDA-MB-435? > 100 µM
